Cited source for all entries: patent US20240158505A1

Target: B7-H3 expressed on the cell membrane (MCF-7, RKO and RKO/B7H3 cell lines) (UniProt Q5ZPR3)
Sequence (Q5ZPR3 29-534): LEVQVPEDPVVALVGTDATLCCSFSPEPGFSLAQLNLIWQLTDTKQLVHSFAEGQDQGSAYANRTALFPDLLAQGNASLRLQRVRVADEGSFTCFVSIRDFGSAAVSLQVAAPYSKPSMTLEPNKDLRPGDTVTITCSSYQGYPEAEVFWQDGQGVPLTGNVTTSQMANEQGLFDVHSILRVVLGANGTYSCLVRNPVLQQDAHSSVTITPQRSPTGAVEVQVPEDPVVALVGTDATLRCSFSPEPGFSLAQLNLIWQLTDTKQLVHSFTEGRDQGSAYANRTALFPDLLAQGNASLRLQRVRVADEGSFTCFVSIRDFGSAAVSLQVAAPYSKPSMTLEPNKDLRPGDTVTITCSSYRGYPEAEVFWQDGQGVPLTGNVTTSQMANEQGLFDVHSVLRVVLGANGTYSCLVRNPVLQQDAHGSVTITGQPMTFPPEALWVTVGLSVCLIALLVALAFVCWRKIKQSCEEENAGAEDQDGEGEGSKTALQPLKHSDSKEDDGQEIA
Assay: cell ELISA on fixed MCF-7 cells
PROPERTY_NAME: EC50 (pM)
Supply the numeric figure in pM, leaving out any unit text.

Record excerpt, results attached:
BINDER | RECORDED_RESULT
#3 antibody (antibody, V domains shown) VH: EVQLLESGGGLVQPGGSLRLSCAASGFTFSTYYMTWVRQAPGKGLEWVSIINPRGGSTSYAEKFQGRFTISRDNSKNTLYLQMNSLRAEDTAVYYCARWNLGMDVWGQGTLVTVSS VL: EIVLTQSPGTLSLSPGERATLSCRVSQSISSYLNWYQQKPGQAPRLLIYDASHRATGIPDRFSGSGSGTDFTLTISRLEPEDFAVYYCQQYYAPSVTFGQGTKVEIK | 197
#8 antibody (antibody, V domains shown) VH: EVQLLESGGGLVQPGSSLRLSCAASGFTFSSYWISWVRQAPGKGLEWVSEISPSGNTNYNPSLKSRFTISRDNSKNTLYLQMNSLRAEDTAVYYCAREVGDLLDYWGQGTLVTVSS VL: QSVLTQPPSASGTPGQRVTISCSGSNIGNNYVSWYQQLPGTAPKLLIYQDSKRPSGVPDRFSGSKSGTSASLAISGLRSEDEADYYCLVWDRSSDHFVFGGGTKLTVL | 159

Now for the binder whose EC50 we want.
Q: Given the entry #2 antibody (antibody, V domains shown) VH: EVQLLESGGGLVQPGGSLRLSCAASGFTFSAYYMIWVRQAPGKGLEWVSITNPSGGVTSYAQKFQGRFTISRDNSKNTLYLQMNSLRAEDTAVYYCARVGGRGFDIWGQGTLVTVSS VL: EIVLTQSPGTLSLSPGERATLSCHASQGISNYVAWYQQKPGQAPRLLIYDASNRATGIPDRFSGSGSGTDFTLTISHLEPEDFAVYYCQQSYSTLLTFGQGTKVEIK , report its measured EC50.
Ans: 61
